- Test system: Vero E6 infected with SARS-CoV-2
- ASSAY REMARKS: SARS-CoV-2 infection rate relative to infected DMSO; higher = more infection, active = 60 or less
- ASSAY SETUP: 24 h
For each record, write down the corresponding SARS-CoV-2 infection rate.
Only the number, expressed in %, is required.

Record O=C(CO)[C@@H](O)[C@@H](O)[C@H](O)CO [tagatose] (10 µM) , field SARS-CoV-2 infection rate: 108

Record CNC(=O)N(C)N=O [nitrosodimethylurea] (10 µM) , field SARS-CoV-2 infection rate: 106

Record N[C@@H]1CCCCN(c2c(F)cc3c(=O)c(C(=O)O)cn(C4CC4)c3c2Cl)C1 [besifloxacin] (10 µM) , field SARS-CoV-2 infection rate: 110

Record COc1ccc2c(c1OC)C(=O)O[C@@H]2[C@H]1c2cc3c(cc2CCN1C)OCO3 [hydrastine-(1R,9S)] (10 µM) , field SARS-CoV-2 infection rate: 108

###

- System: Vero E6 infected with SARS-CoV-2
- ASSAY REMARKS: inhibition of SARS-CoV-2 cytopathic effect; higher = more antiviral protection, active = above 15
- ASSAY SETUP: 833.33 nM; 48 h
ENDPOINT NAME: inhibition of SARS-CoV-2 cytopathic effect (%)
Only the number, expressed in %, is required.

Record "O=C1NC(=O)c2c1c1c3ccccc3[nH]c1c1[nH]c3ccccc3c21" , field inhibition of SARS-CoV-2 cytopathic effect: -3.59

Record Cc1ccc(C)c([C@H](O)CNC(C)C)c1 [benzenemethanol,-2,5-dimethyl-[[(1-methylethyl)amino]methyl]] , field inhibition of SARS-CoV-2 cytopathic effect: 0.15

Record "O=C1C(O)=C([C@H]2CC[C@H](c3ccc(Cl)cc3)CC2)C(=O)c2ccccc21" , field inhibition of SARS-CoV-2 cytopathic effect: -1.77

Record CC(=O)NS(=O)(=O)c1ccc(N)cc1 [sulfacetamide] , field inhibition of SARS-CoV-2 cytopathic effect: 2.14

Record "COc1cccc(OC)c1OCCNC[C@H]1COc2ccccc2O1" , field inhibition of SARS-CoV-2 cytopathic effect: 0

Record "O=C1c2cccc(O)c2C(=O)c2c(O)cc(CO)cc21" , field inhibition of SARS-CoV-2 cytopathic effect: -3

Record "CCCCCn1cc(C(=O)NC23CC4CC(CC(C4)C2)C3)c(=O)c2cc(-c3ccccc3)ccc21" , field inhibition of SARS-CoV-2 cytopathic effect: -1.94

Record "N#Cc1c(-c2ccccc2)cc(-c2cc(Br)ccc2O)[nH]c1=O" , field inhibition of SARS-CoV-2 cytopathic effect: 2.87

Record "O=C1NC(=O)/C(=C/c2ccc3c(c2)OC(F)(F)O3)S1" , field inhibition of SARS-CoV-2 cytopathic effect: -7.64

###

- Tested on: Vero E6 infected with SARS-CoV-2
- ASSAY REMARKS: inhibition of SARS-CoV-2 cytopathic effect; higher = more antiviral protection, active = above 15
- ASSAY SETUP: 100 nM; 48 h
ENDPOINT NAME: inhibition of SARS-CoV-2 cytopathic effect

Record CN(C)CCCC1(c2ccc(F)cc2)OCc2cc(C#N)ccc21 (centres undefined) [citalopram] , field inhibition of SARS-CoV-2 cytopathic effect: 1.49% (inactive)

Record CCCc1c(OCC(O)COc2ccc3c(=O)cc(C(=O)O)oc3c2CCC)ccc(C(C)=O)c1O (centres undefined) , field inhibition of SARS-CoV-2 cytopathic effect: 3.25% (inactive)

Record O=C1N[C@@H]2[C@@H](O)[C@@H](O)[C@H](O)[C@@H](CO)N2C1=O [kifunensine] , field inhibition of SARS-CoV-2 cytopathic effect: 3.44% (inactive)

Record CC#C[C@]1(O)CC[C@H]2[C@@H]3CCC4=CC(=O)CCC4=C3[C@@H](c3ccc(N(C)C)cc3)C[C@@]21C [mifepristone] , field inhibition of SARS-CoV-2 cytopathic effect: 3.53% (inactive)

Record "CCc1c2c(nc3ccc(O)cc13)-c1cc3c(c(=O)n1C2)COC(=O)[C@]3(O)CC" , field inhibition of SARS-CoV-2 cytopathic effect: -1.96% (inactive)

Record "CCNC(=O)[C@H]1O[C@@H](n2cnc3c(N)nc(NCCc4ccc(CCC(=O)O)cc4)nc32)[C@H](O)[C@@H]1O" , field inhibition of SARS-CoV-2 cytopathic effect: -2.43% (inactive)

Record N[C@H](C(=O)O)c1cc(O)no1 [ibotenic-acid] , field inhibition of SARS-CoV-2 cytopathic effect: 0.56% (inactive)

Record Cc1ccc(NC(=O)c2ccc(CN3CCN(C)CC3)cc2)cc1Nc1nccc(-c2cccnc2)n1 [imatinib] , field inhibition of SARS-CoV-2 cytopathic effect: 5.42% (inactive)

Record CNC(=O)c1ccc2cc([C@@]3(O)CCn4cncc43)ccc2c1 [orteronel] , field inhibition of SARS-CoV-2 cytopathic effect: 4.35% (inactive)

###

- Test system: Vero E6 infected with SARS-CoV-2
- ASSAY REMARKS: inhibition of SARS-CoV-2 cytopathic effect; higher = more antiviral protection, active = above 15
- ASSAY SETUP: 8.33 nM; 48 h
Where a name gives a salt, the structure may show the parent alone.
ENDPOINT NAME: inhibition of SARS-CoV-2 cytopathic effect (%)
Only the number, expressed in %, is required.

Record "CCCN1CCN(c2ccc(C(=O)NC3(C(=O)NCC#N)CCCCC3)cc2)CC1" , field inhibition of SARS-CoV-2 cytopathic effect: 0.96

Record "OC[C@H]1O[C@@H](Oc2ccc(O)cc2)[C@H](O)[C@@H](O)[C@@H]1O" , field inhibition of SARS-CoV-2 cytopathic effect: 0.67

Record "C[C@@H]1C[C@H]2[C@@H]3C[C@H](F)C4=CC(=O)C=C[C@]4(C)[C@@]3(F)[C@@H](O)C[C@]2(C)[C@@]1(O)C(=O)CO" , field inhibition of SARS-CoV-2 cytopathic effect: -0.72

Record "COc1c2occc2c(OC)c2c(=O)cc(C)oc12" , field inhibition of SARS-CoV-2 cytopathic effect: -0.75

Record "N[C@@H](CSCCCO)C(=O)O" , field inhibition of SARS-CoV-2 cytopathic effect: 1.3

Record "CCCc1nn(C)c2c(=O)[nH]c(-c3cc(S(=O)(=O)N4CCN(C)CC4)ccc3OCC)nc12" , field inhibition of SARS-CoV-2 cytopathic effect: 2.01

Record CCCCCNCC(N)=O [milacemide] , field inhibition of SARS-CoV-2 cytopathic effect: -1.78

Record "Cc1cc2c(cc1CC(=O)c1sccc1S(=O)(=O)Nc1onc(C)c1Cl)OCO2" , field inhibition of SARS-CoV-2 cytopathic effect: -1.81

Record "O=C(O)c1cc(O)c2ccc(Cl)cc2n1" , field inhibition of SARS-CoV-2 cytopathic effect: 1.28

Record CNCCc1cnc[nH]1 [N-alpha-methylhistamine-dihydrochloride] , field inhibition of SARS-CoV-2 cytopathic effect: 2.71

Record "CC1CCN(CC[C@H]2CCCN2S(=O)(=O)c2cccc(O)c2)CC1" , field inhibition of SARS-CoV-2 cytopathic effect: 2.24

Record C[N+]12CCC(CC1)C(OC(=O)C(O)(c1ccccc1)c1ccccc1)C2 (stereo not drawn) , field inhibition of SARS-CoV-2 cytopathic effect: 1.76

Record CC[C@@H](C)c1ccc(NC(=O)Cn2cnc3c2c(=O)n(C)c(=O)n3C)cc1 (racemic) , field inhibition of SARS-CoV-2 cytopathic effect: 0.22

Record "NNCCc1ccccc1" , field inhibition of SARS-CoV-2 cytopathic effect: -0.85

Record CCN(CC)CC1CCCCN1CC(=O)N1c2ccccc2C(=O)Nc2cccnc21 (stereo not drawn) , field inhibition of SARS-CoV-2 cytopathic effect: 3.08

Record "CC(=O)C(=Cc1cc(O)c(O)c([N+](=O)[O-])c1)C(C)=O" , field inhibition of SARS-CoV-2 cytopathic effect: 2.97

Record "COC(=O)/C=C/C(=O)N[C@@H]1CC[C@@]2(O)[C@H]3Cc4ccc(O)c5c4[C@@]2(CCN3CC2CC2)[C@H]1O5" , field inhibition of SARS-CoV-2 cytopathic effect: 1.21

Record NS(=O)(=O)c1cc(C2(O)NC(=O)c3ccccc32)ccc1Cl (stereo not drawn) , field inhibition of SARS-CoV-2 cytopathic effect: -0.18

###

- Test system: Vero E6 infected with SARS-CoV-2
- ASSAY REMARKS: inhibition of SARS-CoV-2 cytopathic effect; higher = more antiviral protection, active = above 15
- ASSAY SETUP: 100 nM; 48 h
ENDPOINT NAME: inhibition of SARS-CoV-2 cytopathic effect (%)
Only the number, expressed in %, is required.

Record CN1CCOC(c2ccccc2)c2ccccc2C1 (stereo not drawn) [nefopam] , field inhibition of SARS-CoV-2 cytopathic effect: 2.72

Record NC(=O)c1nc(F)cnc1O [favipiravir] , field inhibition of SARS-CoV-2 cytopathic effect: -0.79

Record CC(C)(C)OC(=O)N[C@H]1CCCCC/C=C\[C@@H]2C[C@@]2(C(=O)NS(=O)(=O)C2CC2)NC(=O)[C@@H]2C[C@@H](OC(=O)N3Cc4cccc(F)c4C3)CN2C1=O [danoprevir] , field inhibition of SARS-CoV-2 cytopathic effect: 1.06

Record O=C(O)c1c(Cl)c(Cl)c(Cl)c(Cl)c1-c1c2cc(I)c(=O)c(I)c-2oc2c(I)c(O)c(I)cc12 [rose-bengal] , field inhibition of SARS-CoV-2 cytopathic effect: 1.8

Record O=C(O)c1cc(=O)c2ccccc2o1 [chromocarb] , field inhibition of SARS-CoV-2 cytopathic effect: -0.55

Record CCCCNc1ccc(C(=O)OCCN(C)C)cc1 [tetracaine] , field inhibition of SARS-CoV-2 cytopathic effect: -0.22

Record CN(C)CCOc1ccc(/C(=C(/CCCl)c2ccccc2)c2ccccc2)cc1 [toremifene] , field inhibition of SARS-CoV-2 cytopathic effect: 1.34

Record O=[N+]([O-])C(Br)(CO)CO [bronopol] , field inhibition of SARS-CoV-2 cytopathic effect: 0.32

Record CCCCC1CCC(c2nc(-c3ccncc3)no2)CC1 (stereo not drawn) , field inhibition of SARS-CoV-2 cytopathic effect: -0.05

Record COc1cc2c(cc1O)CC[C@@H]1[C@@H]2CC[C@]2(C)[C@@H](O)CC[C@@H]12 [2-methoxyestradiol] , field inhibition of SARS-CoV-2 cytopathic effect: -1.13

Record CC(C)Oc1ccc(-c2nc(-c3cccc4c3CC[C@@H]4NCCO)no2)cc1C#N [ozanimod] , field inhibition of SARS-CoV-2 cytopathic effect: 2.87

Record C=CC(=O)O [acrylate] , field inhibition of SARS-CoV-2 cytopathic effect: -3.82

Record C=C(C)[C@@H]1CC[C@]2(C(=O)O)CC[C@]3(C)[C@H](CC[C@@H]4[C@@]5(C)CC[C@H](OC(=O)CC(C)(C)C(=O)O)C(C)(C)[C@@H]5CC[C@]43C)[C@@H]12 [bevirimat-dimeglumine] , field inhibition of SARS-CoV-2 cytopathic effect: 2.72

Record CC[C@@](C)(Nc1ccnc(-c2c[nH]c3ncccc23)n1)C(=O)NCC(F)(F)F [decernotinib] , field inhibition of SARS-CoV-2 cytopathic effect: -0.04

Record N=C(N)SCCc1c[nH]cn1 [imetit] , field inhibition of SARS-CoV-2 cytopathic effect: -2.84

Record "Cc1ccc(CNc2ncnc3ccc(-c4ccc(CO)o4)cc23)o1" , field inhibition of SARS-CoV-2 cytopathic effect: 0.15

Record O=C(O)/C=C/c1ccc(-c2ccc(O)c(C34CC5CC(CC(C5)C3)C4)c2)cc1 [adarotene] , field inhibition of SARS-CoV-2 cytopathic effect: 0.7

Record C=CC(=O)Nc1cccc(Nc2nc(Nc3ccc(N4CCN(C(C)=O)CC4)cc3OC)ncc2C(F)(F)F)c1 [rociletinib] , field inhibition of SARS-CoV-2 cytopathic effect: -0.14
